measured target: MRGPRX2-WT (wild-type MRGPRX2 receptor) (Homo sapiens)
Construct: expressed in transfected cells
measurement description: Primary HTS, Ca2+ mobilization (fluorescence ratio, B-score) in HEK293-Gα15 cells stably expressing wild-type MRGPRX2
Format: cell-based
assay conditions: 10 μM compound, Supplementary Table 2
Counter-ions that a name gives are not always drawn.
Just a reminder that ties go to false (0): only B-scores (WT) strictly below 10 counts as true (1).

> print(dat)
                                    compound   category
 1                      C[N+](C)(C)CCOC(N)=O  false (0)
 2  CNCCCN1c2ccccc2CCc2ccccc21 [Desipramine Hydrochloride]   true (1)
 3  CN1CCN(CCCN2c3ccccc3Sc3ccc(C(F)(F)F)cc32)CC1   true (1)
 4  COc1ccc(CCN(C)CCCC(C#N)(c2ccc(OC)c(OC)c2)C(C)C)cc1OC (stereo not shown) [Verapamil Hydrochloride]   true (1)
 5  CN(C)CCCN1c2ccccc2CCc2ccccc21 [Imipramine Hydrochloride]  false (0)
 6  CN(C)CCC=C1c2ccccc2CCc2ccccc21 [Amitriptyline hydrochloride]  false (0)
 7  CC(=O)c1ccc2c(c1)N(CCCN(C)C)c1ccccc1S2 [Acepromazine]  false (0)
 8  CN(C)CCC(c1ccc(Br)cc1)c1ccccn1 (stereo not shown) [Brompheniramine]  false (0)
 9  CC(C)(C)NCC(O)c1ccc(O)c(CO)c1.CC(C)(C)NCC(O)c1ccc(O)c(CO)c1.O=S(=O)(O)O (stereo not shown) [Albuterol sulfate]  false (0)
10  CN(C)CCC(c1ccc(Cl)cc1)c1ccccn1 (stereo not shown)   true (1)
11  COc1cccc2c1C(=O)c1c(O)c3c(c(O)c1C2=O)C[C@@](O)(C(C)=O)C[C@@H]3O[C@H]1C[C@H](N)[C@H](O)[C@H](C)O1 [Daunorubicin]   true (1)
12  CN(C)CCC=C1c2ccccc2C=Cc2ccccc21 [Cyclobenzaprine Hydrochloride]  false (0)
13  COc1ccc(CCN(C)CCCC(C#N)(c2ccc(OC)c(OC)c2)C(C)C)cc1OC (stereo not shown) [Verapamil]   true (1)
14  CN(C)CCCN1c2ccccc2Sc2ccc(C(F)(F)F)cc21 [Triflupromazine Hydrochloride]   true (1)
15  CN(C)CCC=C1c2ccccc2COc2ccccc21 [Doxepin Hydrochloride]  false (0)
16  CN(C)CC[C@@H](c1ccc(Cl)cc1)c1ccccn1 [Dexchlorpheniramine Maleate]  false (0)

---

measured target: MRGPRX2-WT (wild-type MRGPRX2 receptor) (Homo sapiens)
Construct: expressed in transfected cells
measurement description: Primary HTS, Ca2+ mobilization (fluorescence ratio, B-score) in HEK293-Gα15 cells stably expressing wild-type MRGPRX2
Assay type: cell-based
assay conditions: 10 μM compound, Supplementary Table 1
Method: We performed an experimental HTS on the Johns Hopkins Drug Library, which includes 1,811 (57%) FDA-approved drugs among 3,456 total compounds (28% of all known drugs worldwide) ([15]). […] We utilized 10 μM compounds (each compound was tested in triplicate) and calculated the compound effect using the signal-to-background fluorescence ratio (see Supplementary Methods). […]
Structures can show the parent of a compound that is named as a salt.

molecule	B-scores (WT)
C[C@H]1COc2c(N3CCN(C)CC3)c(F)cc3c(=O)c(C(=O)O)cn1c23 [Levofloxacin]	39.73
N=C(N)c1ccc(OCCCCCOc2ccc(C(=N)N)cc2)cc1 [Pentamidine Isethionate]	37.48
CC(=O)OCC[N+](C)(C)C [Acetylcholine Chloride]	47.11
CCOC(=O)N1CCC(=C2c3ccc(Cl)cc3CCc3cccnc32)CC1 [Loratadine]	21.95
COc1ccc2c(c1)[C@]13CCCC[C@@H]1[C@H](C2)N(C)CC3 [Dextromethorphan hydrobromide]	38.47
CC(C)CCCC(C)NC(C)C (centres unmarked) [Iproheptine]	26.61
CN(C)CCOC(c1ccc(Cl)cc1)c1ccccn1 (centres unmarked) [Carbinoxamine Maleate]	38.93
CC12CC3CC(C)(C1)CC(N)(C3)C2 [Memantine Hydrochloride]	26.34
CC(C)NCC(O)c1ccc(O)c(O)c1 (centres unmarked) [Isoproterenol]	19.12
CN(C)CCC(c1ccc(Br)cc1)c1ccccn1 (centres unmarked) [Brompheniramine]	18.22
CNCCCC1c2ccccc2C=Cc2ccccc21 [Protriptyline Hydrochloride]	24.43
CNC[C@H](O)c1ccc(O)c(O)c1 [Epinephrine Bitartrate]	25.60
N=C(N)c1ccc(OCCCCCOc2ccc(C(=N)N)cc2)cc1 [Pentamidine]	24.12
CN(C)CCC(c1ccc(Br)cc1)c1ccccn1 (centres unmarked) [Brompheniramine Maleate]	41.41
CC(=O)Oc1cc(C(C)C)c(OCCN(C)C)cc1C [Moxisylyte Hydrochloride]	23.69
CCCCC[C@H](O)/C=C/[C@H]1[C@H](O)CC(=O)[C@@H]1C/C=C\CCCC(=O)O [Dinoprostone (Prostaglandin E2)]	40.59
NCCC(O)(P(=O)([O-])O)P(=O)([O-])O.[Na+].[Na+] [Pamidronate disodium]	30.08
CO[C@@H](C(=O)N1Cc2n[nH]c(NC(=O)c3ccc(N4CCN(C)CC4)cc3)c2C1)c1ccccc1 [Danusertib]	20.37
CCn1cc(C(=O)O)c(=O)c2cc(F)c(N3CCNCC3)cc21 [Norfloxacin]	28.07
COc1ccc([C@@H]2Sc3ccccc3N(CCN(C)C)C(=O)[C@@H]2OC(C)=O)cc1 [Diltiazem Hydrochloride]	22.99
CO[C@H]1/C=C/O[C@@]2(C)Oc3c(C)c(O)c4c(O)c(c(/C=N/N5CCN(C)CC5)c(O)c4c3C2=O)NC(=O)/C(C)=C\C=C\[C@H](C)[C@H](O)[C@@H](C)[C@@H](O)[C@@H](C)[C@H](OC(C)=O)[C@@H]1C [Rifampin]	23.94
C[N+](C)(C)CCOC(N)=O [Carbachol]	42.55
Cc1ccc(/C(=C\CN2CCCC2)c2ccccn2)cc1.Cl [Triprolidine Hydrochloride]	20.71
CC(=O)OC(C)C[N+](C)(C)C (centres unmarked) [Methacholine Chloride]	26.04
CN(C)CCN1C(=O)c2ccccc2N(C)c2ccccc21 [Dibenzepin]	25.48
Cc1ccc(NC(=O)c2ccc(CN3CCN(C)CC3)cc2)cc1Nc1nc(-c2cccnc2)cs1 [Masitinib]	27.71

---

# Lookup of reported Change of B-scores (%) keyed by entry
measured target: MRGPRX2-MUT (MRGPRX2 N62S mutation) (Homo sapiens, UniProt Q96LB1, N62S)
Construct: expressed in transfected cells
Sequence (Q96LB1 1-330 N62S): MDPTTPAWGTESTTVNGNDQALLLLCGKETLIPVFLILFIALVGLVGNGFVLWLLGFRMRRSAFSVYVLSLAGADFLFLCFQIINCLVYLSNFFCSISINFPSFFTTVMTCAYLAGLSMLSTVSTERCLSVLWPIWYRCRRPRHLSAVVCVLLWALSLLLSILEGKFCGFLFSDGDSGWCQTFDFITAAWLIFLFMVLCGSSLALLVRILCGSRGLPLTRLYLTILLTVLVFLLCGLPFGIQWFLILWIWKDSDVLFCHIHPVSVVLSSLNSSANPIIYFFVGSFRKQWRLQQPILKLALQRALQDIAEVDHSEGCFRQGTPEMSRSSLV
measurement description: Primary HTS, Ca2+ mobilization (fluorescence ratio, B-score) in HEK293-Gα15 cells stably expressing the MRGPRX2 N62S mutation
Type: cell-based
assay conditions: MRGPRX2-MUT versus MRGPRX2-WT cells, 10 μM, Supplementary Table 2
Counter-ions that a name gives are not always drawn.
assay endpoint: Change of B-scores (%)

compound	numeric readout
COc1cccc2c1C(=O)c1c(O)c3c(c(O)c1C2=O)C[C@@](O)(C(C)=O)C[C@@H]3O[C@H]1C[C@H](N)[C@H](O)[C@H](C)O1 [Daunorubicin Hydrochloride]	414.49
CC(=O)[C@]1(O)Cc2c(O)c3c(c(O)c2[C@@H](O[C@H]2C[C@H](N)[C@H](O)[C@H](C)O2)C1)C(=O)c1ccccc1C3=O [Idarubicin hydrochloride]	241.86
CN(C)CCOC(c1ccc(Cl)cc1)c1ccccn1 (stereo not drawn) [Carbinoxamine Maleate]	-94.84
C[N+](C)(C)CCOC(N)=O	49.41
CC(C)(C)NCC(O)c1cc(O)cc(O)c1.CC(C)(C)NCC(O)c1cc(O)cc(O)c1.O=S(=O)(O)O (stereo not drawn) [Terbutaline Hemisulfate]	-88.03
CC(=O)OCC[N+](C)(C)C [Acetylcholine Chloride]	38.45
COc1ccc2c(c1)[C@]13CCCC[C@@H]1[C@H](C2)N(C)CC3 [Dextromethorphan hydrobromide]	138.39
CN(C)CCCN1c2ccccc2Sc2ccccc21 [Promazine Hydrochloride]	-65.37
CC(Cc1ccc(O)cc1)NCC(O)c1cc(O)cc(O)c1 (stereo not drawn) [Fenoterol Hydrobromide]	-100.16
CN1CC[C@@]23CCCC[C@@H]2[C@@H]1Cc1ccc(O)cc13	113.94
CN(C)CCC(c1ccc(Cl)cc1)c1ccccn1 (stereo not drawn)	-90.88
CN(C)CCOC(c1ccc(Cl)cc1)c1ccccn1 (stereo not drawn) [Carbinoxamine]	-98.93

Cited source for all entries: paper PMC9635925
